- System: NCI-H1703 cells
- protocol_summary: Cell Titer Glo cellular cytotoxicity assay, NCI-H1703
- Assay type: cell-based
- condition_notes: Homo sapiens, NCI-H1703, 144 h; H1703, 6 days, representative experiment, unit not readable in the picture; read-out: IC50 (Fig. 3B)
pIC50: −log10 of the molar value.
recorded_metric: pIC50

>>> recorded_result("COc1cccc2c1C(=O)c1c(O)c3c(c(O)c1C2=O)C[C@@](O)(C(=O)CO)C[C@@H]3O[C@H]1C[C@H](N)[C@H](O)[C@H](C)O1 [doxorubicin]")
8.40
